TESTED_ON: RSV prefusion F (preF), subtype B (respiratory syncytial virus, subtype B)
RUN_DESCRIPTION: BLI, IgG
Would you mind telling me the reported pKd of each entry?
Numbers only, as −log10 of the molar value.

Field: example entries. Status: answers known.
BINDER	pKd
ADI-20960 (antibody, V domains shown) VH: QVQLQQWGAGVLKPSETLSLTCAVNGRSLSGHYWSWIRQTPGKGLEWIGEINNSGGTHYSPSLKSRVIISGDTAKNQLSLKLSSVTAADTAVYYCAKGSAEWYFDLWGRGTLVTVSS VL: DIRVTQSPSTLSASVGDRVTITCRASQSVSTWLAWYQQKPGKPPSLLIFKASTLESGVPSRFSGSGSGTEFTLTISSLQPDDFATYYCQQYNTYSPWTFGPGTKVEIK	9.64
ADI-21049 (antibody, V domains shown) VH: EVQLVESGGGLVKPGGSLRLSCSASGFAFSSYSMNWVRQAPGKGLEWVSSISASSSYIFYADSVKGRFTISRDNAKNSLYLQMNSLRAEDTAFYYCARALSPGYGDYRDYWGQGTLVTVSS VL: QSVVTQPPSVSGAPGQRVTISCTGSSSNIGAGYDVHWYQQLPGAAPKLLIYGNNNRPSGVPDRFSGSKSGTSASLAITGLQAEDEADFYCQSYDHNLSVVFGGGTKLTVL	8.90
ADI-14424 (antibody, V domains shown, also called Ab 90) VH: QVQLVQSGAEVKKPGESLKISCKGPDSSFSVYWIAWVRQMPGKGLEWMGVIYVGDSDTRYSPSFRGQVTISADKSMNTAYLQWSSLKASDTAMYFCARHIPPGPFDLWGQGTMVTVSS VL: NFMLTQPHSVSASPGKTITISCTRSSGSIASNSVQWYQQRPGSAPTNVIYEDDQRPLGVPNRFSGSIDSSSNSASLTISGLKTEDEADYYCHSYHNSDQVFGGGTKLTVL	8.72
ADI-20959 (antibody, V domains shown) VH: EVQLLESGAEVKKPGASVKVSCKTSGYTFSNYGVSWVRQAPGQGLEWLGWISAYNGNTNYAQKLQGRVTMTTDSSTSTAYMEVRSLRSDDTAVYYCARDVAPVAASLFDYWGQGTLVTVSS VL: DIRLTQSPLSLPVTLGQPASISCRSSQSLEFTDGNTYLSWFQQRPGQSPRRLIYKVSNRDSGVPDRFSGSGSGTDFTLKINRVEAEDVGVYYCMQGIHWPPTFGPGTKVEIK	9.37

Which value of pKd has been reported for ADI-14402 (antibody, V domains shown, also called Ab 68) VH: QVQLVQSGAEVKKPGASVKVSCKTSGYTFTNYGISWVRQAPGQGLEWMGWISAYNGNRNYAQKLQGRVTMTTDTSTSTAYMELRSLRSDDTAVYYCAREPPVIAAGDFSHWGQGTLVTVSS VL: EIVLTQSPLSLPVTLGQPASISCRSSQSLVHSDANTYLSWFQQRPGQSPRRLIYKVSNRDSGVPDRFSGSGSGTDFTLKISRVEAEDVGVYYCMQGTHWPPDFGQGTRLEIK in the records?
9.38
